target: Gastrin/cholecystokinin type B receptor (Cavia porcellus); assay: Apparent affinity to inhibit binding of [3H]pCCK-8 to Cholecystokinin type B receptor of guinea pig brain membranes
Where a SMILES comes first, the peptide text is derived from it. [ ]: non-standard residue; d: D form. The star is where a group is joined. Orn = NCCC[C@H](N)C(=O)O; Boc = CC(C)(C)OC(=O)*
Parameter: pKi
The scale used: pKi is minus the common logarithm of the concentration in molar units.

INSERT INTO assay_data (compound, readout_number) VALUES
  ('CC(C)(C)OC(=O)NCCC[C@H](NC(=O)[C@H](Cc1c[nH]c2ccccc12)NC(=O)OC(C)(C)C)C(=O)N[C@@H](CC(=O)O)C(N)=O (Boc-Trp-[Orn](Boc)-Asp-NH2)', 5.37);

Would you mind telling me what pKi value was observed for CC(C)(C)OC(=O)N[C@@H](Cc1c[nH]c2ccccc12)C(=O)N[C@@H](CCCN)C(=O)N[C@@H](CC(=O)O)C(=O)N[C@@H](Cc1ccccc1)C(N)=O (Boc-W[Orn]DF-NH2) ?
5.85

FYI, the data here is from BindingDB's records for doi:10.1021/jm00174a016.
